- assayed.target: Metabotropic glutamate receptor 8 (Rattus norvegicus) (UniProt P70579)
- Sequence (P70579 whole entry, looked up): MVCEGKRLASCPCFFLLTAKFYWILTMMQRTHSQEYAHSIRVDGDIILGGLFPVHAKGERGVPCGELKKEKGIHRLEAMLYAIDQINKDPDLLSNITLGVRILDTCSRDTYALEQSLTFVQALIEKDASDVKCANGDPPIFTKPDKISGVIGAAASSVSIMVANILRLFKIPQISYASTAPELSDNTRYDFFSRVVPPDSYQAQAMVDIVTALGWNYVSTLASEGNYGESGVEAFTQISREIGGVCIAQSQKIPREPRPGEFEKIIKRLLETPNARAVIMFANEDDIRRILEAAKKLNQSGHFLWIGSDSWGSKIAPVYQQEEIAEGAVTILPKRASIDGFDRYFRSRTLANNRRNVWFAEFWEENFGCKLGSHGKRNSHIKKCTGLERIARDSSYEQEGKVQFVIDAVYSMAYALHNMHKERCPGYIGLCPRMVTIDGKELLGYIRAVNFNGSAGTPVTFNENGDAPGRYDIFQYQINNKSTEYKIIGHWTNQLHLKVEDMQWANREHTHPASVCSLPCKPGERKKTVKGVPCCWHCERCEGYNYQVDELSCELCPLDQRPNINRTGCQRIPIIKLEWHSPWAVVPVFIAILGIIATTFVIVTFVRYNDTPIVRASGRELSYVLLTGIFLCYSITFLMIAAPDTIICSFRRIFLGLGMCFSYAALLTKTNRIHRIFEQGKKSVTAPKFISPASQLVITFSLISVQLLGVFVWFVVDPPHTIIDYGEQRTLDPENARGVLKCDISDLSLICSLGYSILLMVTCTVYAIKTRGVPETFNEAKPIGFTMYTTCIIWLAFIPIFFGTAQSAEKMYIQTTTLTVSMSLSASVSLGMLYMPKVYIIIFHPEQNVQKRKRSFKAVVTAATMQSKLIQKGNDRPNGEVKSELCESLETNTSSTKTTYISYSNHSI
- measurement.notes: mGluR8 Gi/Go-coupled signaling modulation – cell-based, rat, thallium flux, HTS, primary screen (AID 488969)
- condition.notes: HEK293 rat mGluR8, GIRK (G protein-gated inwardly rectifying potassium channel) thallium flux, FluoZin2; at 10 µM; stronger effect = higher value; submaximal glutamate (EC20) added with thallium
In all, about 110,000 compounds were measured (“z-score”: median about -0.1, highest 2% from about 2 on). The entries come from a sample that favours the highest values as a whole.
So basically: z-score at -0.1 or higher? That is satisfied. Lower than -0.1? That is not satisfied.

compound	category
COc1ccc(C)cc1C1=Nc2ccccc2C1(C)C	not satisfied
CCOC(=O)N1CCC(N2C(=O)c3ccccc3C2Nc2ccccc2)CC1 (stereo unspecified)	not satisfied
COC(=O)NNC(=O)c1ccc(C)cc1	satisfied
CCC(C)NC(=O)COc1ccc(Br)c(C)c1 (stereo unspecified)	satisfied
c1coc(Cn2c(SCc3nc4ccccc4[nH]3)nnc2-c2cccs2)c1	not satisfied
COc1cccc(-n2c(SCC(=O)N3CCCC3)nc3c([nH]c4ccccc43)c2=O)c1	not satisfied
